- experimental_details: in vitro
- condition: human, hela cells, % viability
measure_name: viability at 28.5 h, 10 µM
# output: number + unit

Tell me the measured viability at 28.5 h, 10 µM of COC1C(O)C(CO)OC1n1cnc2c(=O)[nH]cnc21 (stereo not shown) [CBK201328] , please.
91.3%

Try this molecule too: COc1ccccc1CC(=O)N1CCCC(c2cc3ncccc3[nH]2)C1 (stereo not shown) [CBK283417]
95.4%

Here is the next molecule: COc1ccc(S(=O)(=O)N(C)CC(=O)N2CCN(Cc3ccccc3)CC2)cc1C [CBK268221]
99.6%

Subsequent entry: CC(=O)N1CCC(C(=O)NC(=O)NCCOc2ccccc2Cl)CC1 [CBK034842]
97.9%

Now consider Cn1cc(N2CCC(NC(=O)c3ccc(C#N)cc3)C2=O)cn1 (stereo not shown) [CBK305182] and answer again.
94%

Again, but for CC1Cc2ccccc2N1C(=O)Cn1c(=O)n(C)c2ncccc21 (stereo not shown) [CBK283793]
90.7%

What would you report for Cc1ncc(CN(C)C(=O)Nc2cccc(C(=O)N3CCOCC3)c2)s1 [CBK305984] ?
92.2%

Next molecule: O=C(O)CCCN1C(=O)c2ccccc2C1=O [CBK056635]
91.7%

Likewise for CCCNCC(=O)N1CCN(C(=O)c2ccc(C)cc2)CC1 [CBK025546] ?
103%

Entry CCc1nn(CC(=O)NC(C)(C)C)c(=O)c2cc3ccsc3n12 [CBK284183] please
105%

---

- experimental_details: in vitro
- condition: human, hela cells, % viability
measure_name: viability at 28.5 h, 10 µM (%)
Please give a number only; it is taken to be in %.

Data request, read-out viability at 28.5 h, 10 µM, for CC(C)(C)c1cc(-c2nc3ccccc3[nH]2)c(O)c(-c2nc3ccccc3[nH]2)c1
90

Entry to check: C=CCNC(=O)Cn1cccc2cc(-c3ccc(OC)cc3)nc1-2
92.4

Now the compound Cc1csc2nc(-c3ccccc3)cn12
108

And then CC(C)N1CCc2c(sc3nc(SCc4ccc(Cl)cc4)n(Cc4ccccc4)c(=O)c23)C1 , what is it?
84.4

Quick one: CCCC(=O)c1ccc(S(=O)(=O)N2CCCN(Cc3ccc(F)c(C#N)c3)CC2)cc1
114

What about this compound? CCOc1ccc(C(=O)NC(=S)Nc2sc(C)c(C)c2C#N)cc1Cl
91.8

Ok, now CC(NC(=O)Cc1ccccc1F)c1nc2cccnc2n1C(C)C (stereo not shown)
90.8

What about this compound? CCCC(=O)NCC(C)c1nsc(NS(=O)(=O)c2cccc(Cl)c2C)n1 (stereo not shown)
96

Also need COC(=O)c1c(NC(=S)NCCn2cc(Br)cn2)sc2c1CCC2 , thanks.
98.2

Same thing, different compound: Cc1cc(C)n2nc(C(=O)N3CCCC34CC=CC4)cc2n1
88.7

Now the same for Cc1ccc(CN(CCCN(C)C)Cc2nc(C)n3ccccc23)o1
106

Can you check CN(C)c1ccc(CCNS(=O)(=O)c2ccc3[nH]c(=O)[nH]c(=O)c3c2)cc1 next?
84.8

Do the same for Cc1ccc(-n2c(=O)[nH]cc(C(=O)Nc3cccc(Cl)c3C)c2=O)cc1C please
101

What do you have for CC(=O)NC1(c2ccc(F)cc2)CCN(C(=O)C(C)C)CC1 ?
103

Same again, this time with O=C1NC2(CCCN(C(=O)c3ccco3)C2)Nc2ccccc21 (stereo not shown)
104

Follow-up entry: COc1ccc(OC)c(C(C)NC(=O)C2CCN(Cc3cccc(C(F)(F)F)c3)CC2)c1 (stereo not shown)
95.7

Lookup Cc1c(C(C)NCC2CCN(C)CC2)cnn1-c1ccc(C#N)cc1 (stereo not shown)
97.3

Same thing, different compound: CCn1cc(Cl)c(C(=O)NC2CCN(c3nc(C)cc(=O)[nH]3)CC2)n1
88.5

Repeat with COc1ccccc1C(=O)Cn1c(=O)n(S(=O)(=O)c2ccccc2)c2ccccc21
90.2

Cool, now Cc1nc(CCNC(=O)N(Cc2cnn(C)c2)C2CC2)nc2c1CCC2
86.1

// same read-out, input: C[S+]([O-])c1sc(Cl)c2c1C(=O)CCC2 (stereo not shown)
104

Another compound to check: Cc1cccc(N(CC(=O)O)CC(=O)O)c1
93.2

Next up: c1cnc(N2CCCC2)c(Sc2nc[nH]n2)n1
102

Same again, this time with COc1cc(CNc2cncc(-c3ccc(F)cc3F)n2)cc(OC)c1OC
115

What about O=C(O)C(CCCCN1C(=O)c2ccccc2C1=O)N1C(=O)c2ccccc2C1=O (stereo not shown) ?
91.7

Request: O=[N+]([O-])c1ccc(Oc2cccc3cccnc23)c(F)c1
60.4

Same question, O=[N+]([O-])c1ccc2c(c1)nnn2CN1CCCCC1 this time
90.4

COC(=O)CNC(=O)c1ccc(S(=O)(=O)N2CCCC2)cc1 ?
88.4

For Cc1sc2[nH]c(CCC(=O)N3CCCC(C)CC3)nc(=O)c2c1C (stereo not shown) then?
103

Now the same for COC(=O)C1CCN(Cc2ccc(-c3nnn(CC(=O)NCc4ccc(C)cc4)n3)cc2)C1 (stereo not shown) [CBK155406T]
105

One more compound: O=C(COc1ccc(-c2ccccc2)cc1)N1CCN(S(=O)(=O)c2ccc([N+](=O)[O-])cc2)CC1
106

What do we get for CCn1c(C)nc2cc(NC(=O)Cn3cccc(C(=O)NC4CCCCC4)c3=O)ccc21 ?
92.9

Now this one: CC(=O)c1c(C)oc2c1cc(NS(=O)(=O)c1ccc(C(=O)O)cc1)c1ccccc12
92

And the next one, Cc1ccc(S(=O)(=O)Nc2ccnc(-c3ccc(CO)cc3)n2)cc1 ?
90.4

Input O=C(C[C@@H]1O[C@H](CNS(=O)(=O)c2ccccc2)[C@@H](O)[C@H]1O)N1CCCC1
108

And for Cc1ccc(C)c2[nH]c(=O)c(CN(CCN3CCOCC3)Cc3nnnn3Cc3ccccc3)cc12 ?
93.1

For O=C(Nc1ccc2c(c1)OCCO2)N1CCN(c2cc(C(F)(F)F)ccn2)CC1 then?
99.4

These measurements were taken from paper PMC12040169.
